Cited source: patent US11339158B2

# test.details: Kinetic solubility in FaSSIF and FeSSIF
# Format: physicochemical
# conditions.used: FaSSIF, thermodynamic from solid, FaSSIF, 1 hour; read-out: Kinetic solubility (concentration of saturated solution)
result.type: solubility kinetic at 1 h (mg/mL)
Give the value in mg/mL but do not write mg/mL after it.

# query: solubility kinetic at 1 h of entry COc1cc2c(cc1OC)[C@H]1C[C@@H](OC(=O)[C@@H](N)C(C)C)[C@H](CC(C)C)CN1CC2 [Form A]
31.8

====

# test.details: Kinetic solubility in FaSSIF and FeSSIF
# Type: physicochemical
# conditions.used: FaSSIF, thermodynamic from solid, FaSSIF, 15 minutes; read-out: Kinetic solubility (concentration of saturated solution)
result.type: solubility kinetic at 15 min (mg/mL)
Report as a plain number; the unit mg/mL is understood.

Tell me the measured solubility kinetic at 15 min of COc1cc2c(cc1OC)[C@H]1C[C@@H](OC(=O)[C@@H](N)C(C)C)[C@H](CC(C)C)CN1CC2 [Form A] , please.
31.4

====

# test.details: Kinetic solubility in FaSSIF and FeSSIF
# Type: physicochemical
# conditions.used: FeSSIF, thermodynamic from solid, FeSSIF, 1 hour; read-out: Kinetic solubility (concentration of saturated solution)
result.type: solubility kinetic at 1 h (mg/mL)
Give your result in mg/mL as a bare value.

// query solubility kinetic at 1 h value for entry COc1cc2c(cc1OC)[C@H]1C[C@@H](OC(=O)[C@@H](N)C(C)C)[C@H](CC(C)C)CN1CC2 [Form A]
41.3

====

# test.details: Kinetic solubility in FaSSIF and FeSSIF
# Type: physicochemical
# conditions.used: FeSSIF, thermodynamic from solid, FeSSIF, 15 minutes; read-out: Kinetic solubility (concentration of saturated solution)
result.type: solubility kinetic at 15 min (mg/mL)
Report the figure in mg/mL without appending any unit label.

Reported solubility kinetic at 15 min for COc1cc2c(cc1OC)[C@H]1C[C@@H](OC(=O)[C@@H](N)C(C)C)[C@H](CC(C)C)CN1CC2 [Form A] : what is it?
41.9

====

# test.details: Kinetic solubility in FaSSIF and FeSSIF
# Format: physicochemical
# conditions.used: FaSSIF, thermodynamic from solid, FaSSIF, 30 minutes; read-out: Kinetic solubility (concentration of saturated solution)
result.type: solubility kinetic at 30 min (mg/mL)
Only the number, expressed in mg/mL, is required.

# get_value(readout='solubility kinetic at 30 min', item= COc1cc2c(cc1OC)[C@H]1C[C@@H](OC(=O)[C@@H](N)C(C)C)[C@H](CC(C)C)CN1CC2 [Form A] )
31.3

====

# test.details: Kinetic solubility in FaSSIF and FeSSIF
# Type: physicochemical
# conditions.used: FeSSIF, thermodynamic from solid, FeSSIF, 30 minutes; read-out: Kinetic solubility (concentration of saturated solution)
result.type: solubility kinetic at 30 min (mg/mL)
Give the quantity in mg/mL, number only.

State the recorded solubility kinetic at 30 min for this entry: COc1cc2c(cc1OC)[C@H]1C[C@@H](OC(=O)[C@@H](N)C(C)C)[C@H](CC(C)C)CN1CC2 [Form A]
41.7
